Attribution: patent US8455658B2

System: IL-2 production
Experiment: Inhibition of IL-2 production in PHA-activated Jurkat cells (ELISA)
Format: cell-based
Details: Homo sapiens, PHA 2.5 μg/mL, 20 hours, IL-2 ELISA
pIC50: −log10 of the molar value.
experimental_readout: pIC50

Per the reported IL-2 production data, Cc1nc(NC(=O)c2c(F)cccc2F)sc1-c1cccc(C(F)(F)F)c1 has pIC50 of 7.00 to 7.30

====

Catalogue of compounds with associated IC50
Tested on: IL-2 production
Test: Inhibition of IL-2 production in PHA-activated Jurkat cells (ELISA)
Type: cell-based
Conditions: Homo sapiens, Jurkat, 20 h, PHA 2.5 μg/mL, IL-2 ELISA

These solved cases illustrate the format of a correct answer.
{"columns": ["molecule", "IC50"],
 "data": [
  ["Cc1nc(NC(=O)c2c(F)cccc2F)sc1-c1cccc(C#N)c1", "100 to 200 nM"],
  ["O=C(O)c1nc(NC(=O)c2c(F)cccc2F)sc1-c1cccc(C(F)(F)F)c1", "> 1000 nM"],
  ["Cc1nc(NC(=O)c2cccnc2F)sc1-c1cccc(C(F)(F)F)c1", "200 to 500 nM"],
  ["Cc1nc(-c2nc(NC(=O)c3c(F)cccc3F)sc2-c2cccc(C(F)(F)F)c2)c(C)s1", "> 1000 nM"],
  ["C=CCOc1ccc(C(F)(F)F)cc1-c1sc(NC(=O)c2c(F)cccc2F)nc1C(=O)OC", "> 1000 nM"],
  ["Cc1cnccc1NC(=O)c1nc(C)c(-c2cccc(C(F)(F)F)c2)s1", "> 1000 nM"],
  ["O=C(Nc1nc(-c2nnco2)c(-c2cccc(C(F)(F)F)c2)s1)c1c(F)cccc1F", "200 to 500 nM"]
]}

# evaluate next
// IC50 lookup, compound = CCOC(CNC(=O)c1nc(NC(=O)c2c(F)cccc2F)sc1-c1cccc(C(F)(F)F)c1)OCC , result: > 1000 nM

====

Overview of reported pIC50 across a group of compounds:
Test system: IL-2 production
Assay: Inhibition of IL-2 production in PHA-activated Jurkat cells (ELISA)
Format: cell-based
Settings: Homo sapiens, Jurkat, 20 h, PHA 2.5 μg/mL, IL-2 ELISA
pIC50: −log10 of the molar value.

// known answers, use as guide
{"columns": ["compound", "experimental_readout", "experimental_value"],
 "data": [
  ["Cc1ccc(-c2ncco2)cc1-c1ncc(C(=O)Nc2c(F)cccc2F)s1 [Compound 121]", "pIC50", "6.70 to 7.00"],
  ["Cc1nc(NC(=O)c2c(F)cccc2F)sc1-c1ccc2c(c1)OCO2 [Compound 57]", "pIC50", "6.30 to 6.70"],
  ["O=C(Nc1nc(C2=NCCO2)c(-c2cccc(C(F)(F)F)c2)s1)c1c(F)cccc1F [Compound 89]", "pIC50", "6.30 to 6.70"],
  ["CN(C)c1ccc(-c2nc(NC(=O)c3c(F)cccc3F)sc2-c2cccc(C(F)(F)F)c2)cc1 [Compound 110]", "pIC50", "< 6.00"],
  ["O=C(Nc1nc(-c2cnco2)c(-c2cccc(C(F)(F)F)c2)s1)c1c(F)cccc1F [Compound 76]", "pIC50", "7.00 to 7.30"]
]}

Entry under test: Cc1nc(C(=O)Nc2c(F)cccc2F)sc1-c1cccc(-c2nnco2)c1 [Compound 118] . Its pIC50 was 6.30 to 6.70

Entry NC(=O)c1nc(NC(=O)c2c(F)cccc2F)sc1-c1cccc(C(F)(F)F)c1 [Compound 97] , pIC50 reported as < 6.00

The compound identified as O=C(Nc1nc(-c2ccon2)c(-c2cccc(C(F)(F)F)c2)s1)c1c(F)cccc1F [Compound 106] registered its pIC50 at 6.70 to 7.00
